protocolDetails: self-splicing fitness, log relative to wild type (ln ratio); higher = more splicing; Tetrahymena group I intron in knt gene, E. coli kanamycin selection, DiMSum; sequences stand for … in CUCUCU…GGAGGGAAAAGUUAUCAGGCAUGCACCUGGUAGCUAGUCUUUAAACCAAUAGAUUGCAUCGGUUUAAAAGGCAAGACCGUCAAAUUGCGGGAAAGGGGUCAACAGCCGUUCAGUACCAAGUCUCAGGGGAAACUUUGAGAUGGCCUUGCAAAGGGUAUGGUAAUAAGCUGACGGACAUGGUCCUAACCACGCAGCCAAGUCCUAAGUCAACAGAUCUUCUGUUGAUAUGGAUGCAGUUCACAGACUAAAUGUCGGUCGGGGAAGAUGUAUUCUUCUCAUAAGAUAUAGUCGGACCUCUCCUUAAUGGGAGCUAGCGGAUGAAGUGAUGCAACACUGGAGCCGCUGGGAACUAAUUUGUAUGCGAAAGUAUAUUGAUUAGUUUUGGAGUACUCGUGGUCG;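 further: selection with 25 µg/mL kanamycin versus none on LB agar overnight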
assaySetup: 37 °C
propertyMeasured: self-splicing fitness (ln)
Kindly provide the number alone.

Examples from the recorded data:
Query: Fill blank: measured self-splicing fitness (ln) of the sequence CAGGAGCAAUAUUACGUGUG is ____.
Reply: -0.614

Query: Fill blank: measured self-splicing fitness (ln) of the sequence GAACAGCAAUAUUACGUGUG is ____.
Reply: -0.967

Query: Fill blank: measured self-splicing fitness (ln) of the sequence UCCUAGCAAUAUUACGGAGU is ____.
Reply: -1.3

Next:
Query: Fill blank: measured self-splicing fitness (ln) of the sequence GGAUAGCAAUAUUACGGUGG is ____.
Reply: -2.48

Query: Fill blank: measured self-splicing fitness (ln) of the sequence GCUGAGCAAUAUUACGUCCG is ____.
Reply: -2.3

Query: Fill blank: measured self-splicing fitness (ln) of the sequence CAAUAGCAAUAUUACGCUCA is ____.
Reply: -1.73

Query: Fill blank: measured self-splicing fitness (ln) of the sequence UUCUAGCAAUAUUACGCUUC is ____.
Reply: -1.96

Query: Fill blank: measured self-splicing fitness (ln) of the sequence UAAUAGCAAUAUUACGAAUA is ____.
Reply: -1.28
